Provide the recorded melting point for the entries that follow.

{"molecule": "COCCNC(=O)c1c(O)c2cc(Cl)ccc2n(C)c1=N", "measured attribute": "melting point", "assay result": "209 to 211 °C"}
{"molecule": "CCCCNC(=S)NS(=O)(=O)c1cc2c(cc1OC)OCCC2CNC(=O)c1cc(Cl)ccc1OC (stereo not given)", "measured attribute": "melting point", "assay result": "167 °C"}
{"molecule": "COc1ccc(C(=O)Nc2ccc3ccc(SC)nc3n2)cc1", "measured attribute": "melting point", "assay result": "130 °C"}
{"molecule": "O=C(O)c1ncn2c1CSC2", "measured attribute": "melting point", "assay result": "184 to 185 °C"}
{"molecule": "COc1ccnc(C(=O)c2[nH]c3cc(Cl)ccc3c2NC(=O)N(C)OC)c1", "measured attribute": "melting point", "assay result": "184 to 185 °C"}
{"molecule": "C[C@H]1[C@H](NC(=O)OC(C)(C)C)C(=O)N1OCC(=O)OCc1ccc([N+](=O)[O-])cc1", "measured attribute": "melting point", "assay result": "71 to 75 °C"}
{"molecule": "CCN1CCC(C2CCN(C(=O)OCc3ccccc3)CC2)CC1", "measured attribute": "melting point", "assay result": "93 to 96 °C"}
{"molecule": "O=Cc1ccc(C(O)c2cccnc2)cc1 (stereo not given)", "measured attribute": "melting point", "assay result": "104 to 105 °C"}
{"molecule": "CCNc1nc(NCc2ccc(NC(=O)C3CCN(Cc4ccccc4)CC3)cc2)c2ccc(C)cc2n1", "measured attribute": "melting point", "assay result": "55 °C"}

// switching to the query molecule
The molecule identified as CC(=O)OC1CCC2(C)C(=CCC3C2CCC2(C)C(C(C)C(O)CCC(C)(C)C)CCC32)C1 (stereo not given) registered its melting point at 185 to 187 °C

---

Provide the recorded melting point for the entries that follow.

Give melting point for each of the items listed below.
1. O=C1CC(O)CC(C=CC2=C(c3ccc(F)cc3)CC3CCC2C3)O1 (stereo not given)
2. CCOc1nn(-c2ccc(C(F)(F)F)cn2)cc1CCCOc1cc(CC(=O)O)ccc1OC
3. CCCCOCCOc1ccc(-c2ccc(N3CC=CC3)c(C=C(C)C(=O)O)c2)cc1

Reply |
123 to 127 °C
142 to 143 °C
138 to 140 °C

Give melting point for each of the items listed below.
1. Fc1ccccc1-c1nncc2c(-c3ccccc3)c(OCc3ccccn3)nn12
2. CCCCCc1cc(O)c2c3c(c(=O)oc2c1)SC(C)C3 (stereo not given)
3. Oc1ncnc2[nH]c(-c3ccccc3)cc12
4. O=C(O)C(=O)CC(=O)c1cccn1Cc1ccccc1-c1ccccc1

Reply |
182 to 183 °C
188 to 190 °C
> 300 °C
150 to 152 °C

---

Provide the recorded melting point for the entries that follow.

{"compound": "Cc1nc(CS(C)(=O)=O)nc(OC(=O)NN2CC(C)OC(C)C2)c1C (configuration not stated)", "measured attribute": "melting point", "assay result": "103 °C"}

Give melting point for each of the items listed below.
1. CC(=O)Nc1ccc(OCC(F)(F)F)cc1[N+](=O)[O-]
2. COC(=O)c1ccc2c(c1)CC(=O)O2
3. CS(=O)c1ccc(Oc2ccc([N+](=O)[O-])cc2C#N)cc1 (configuration not stated)
4. COc1cc(C2CCCO2)cc(OC)c1OC (configuration not stated)
5. CC(C)(Oc1ccc2c(c1)CCc1c-2ccc2c1CCC2(C)C)C(=O)O
6. CSCC(=O)C(Cc1ccccc1)NC(=O)C(CC(C)C)NC(=O)Cc1cccc2ccccc12 (configuration not stated)
7. COc1cc2c(cc1OC)N(C)C(=O)CNC2=O

Reply |
1: 117 to 118 °C; 2: 102 to 103 °C; 3: 159 to 160 °C; 4: 102 to 104 °C; 5: 167 to 170 °C; 6: 126 to 129 °C; 7: 260 to 263 °C

Give melting point for each of the items listed below.
1. Cc1cc(C)c(Nc2nc(C)ncc2S(=O)(=O)c2ccc(-c3ncccn3)cc2)c(C)c1
2. Cn1cc(OS(C)(=O)=O)c(=O)c2cc(F)ccc21
3. CCc1nc2c(N)nc3cc(/C=C/C(=O)OC)ccc3c2n1CC(C)(C)O
4. CC(C)c1nn(-c2ccc(C(F)(F)F)cn2)cc1CCCCOS(C)(=O)=O

Reply |
1. 215 to 217 °C
2. 188 to 189 °C
3. 238 to 240 °C
4. 87 to 89 °C

Give melting point for each of the items listed below.
1. O=C1NC(=O)C(C2C3CCCC32)O1 (configuration not stated)
2. O=C(Nc1ccc(OCCCBr)cc1)c1cccc2c(=O)c3ccccc3[nH]c12

Reply |
["135 to 141 °C", "126 °C"]

Give melting point for each of the items listed below.
1. FC(F)(F)COc1ccccc1N1CCNCC1
2. O[C@@H]1[C@H](O)[C@H](O)CO[C@H]1n1c(Br)nc2c(F)c(Cl)c(Cl)cc21
3. Oc1ccc(Cc2ccc(OCC(O)CCc3cccnc3)cc2)cc1 (configuration not stated)
4. O=[N+]([O-])c1ccc(C=Cc2ccc(OCC(O)CO)cc2)cc1 (configuration not stated)

Reply |
1: 107 to 108 °C; 2: 165 °C; 3: 98 to 99 °C; 4: 147 °C

Give melting point for each of the items listed below.
1. O=C(Nc1ccc2ccc(-c3ccccc3)nc2n1)c1cccc(Br)c1
2. CCCCCCC(=O)C=Cc1ccc(O)c(O)c1
3. NC(=O)c1nc(-c2cccc(O)c2)nc2c1[nH]c(=O)n2-c1cccc(F)c1

Reply |
1. 175 °C
2. 114 to 115 °C
3. > 375 °C

Give melting point for each of the items listed below.
1. CCCc1ccc(C(=O)Nc2ccc3sc(C)nc3c2Cl)cc1
2. CN(CC(=O)[C@H](Cc1ccccc1)NC(=O)N1CCCCC1)C(=O)N1CCC[C@H]1C(=O)O
3. Cn1ncsc1=NC(=S)Nc1ccccc1

Reply |
184 °C
69 to 72 °C
174 to 175 °C

Give melting point for each of the items listed below.
1. CS(=O)CC(=O)c1ccc(F)cc1 (configuration not stated)
2. CC(C)(C)OC(=O)/C(=C/c1ccccc1Cl)C(=O)c1ccccc1O
3. CCOC(=O)c1sc(-c2cc3cccc(NS(=O)(=O)c4cccs4)c3[nH]2)nc1C
4. Cc1cc(C#N)cc(C)c1Nc1nc(Nc2ccc(C#N)cc2)ncc1Br
5. Cn1ncc(C(=O)O)c1C(=O)Nc1ccn2nc(Br)nc2c1
6. CCCCNS(=O)(=O)CC(O)C(O)C(CC1CCCCC1)NC(=O)[C@H](CC(C)C)NC(=O)C(Cc1ccccc1)CS(=O)(=O)C(C)(C)C (some centres not stated)
7. CCOC(=O)c1c(C)nc2c(cnn2CC)c1Cl
8. COc1cc(-c2oc3c(OC)cc(/C=C/C=O)cc3c2C)ccc1O

Reply |
["94.5 to 96 °C", "75 to 78 °C", "226 to 228 °C", "277 to 280 °C", "> 250 °C", "87 to 101 °C", "54 to 56 °C", "169 to 170 °C"]

Give melting point for each of the items listed below.
1. CN1C(=O)c2[nH]c3cc(Cl)ccc3c2Oc2ccccc21
2. Nc1ccc(F)c(-c2ccccn2)c1F
3. O=C(O)c1cccc(OCC(=O)C23CC4CC(CC(C4)C2)C3)c1
4. COc1ccc(C=Nc2c3c(nc4ccccc24)CCCC3)cc1

Reply |
1: 306 to 307 °C; 2: 71 to 73 °C; 3: 156 °C; 4: 160 to 162 °C

---

Provide the recorded melting point for the entries that follow.

Known melting point results, listed for orientation:
{"compound": "CCOC(=O)Cc1cc(O)n[nH]1", "assay result": "114 to 117 °C"}
{"compound": "C#CCCc1cc2cc(C(=O)OC)ccc2o1", "assay result": "57 to 58 °C"}
{"compound": "NS(=O)(=O)c1ccccc1S(=O)(=O)N1CCC1", "assay result": "121 to 123 °C"}
{"compound": "CCNC(=O)Nc1ccc(C(O)(C(F)(F)F)C(F)(F)F)cc1", "assay result": "178 to 179 °C"}
{"compound": "Cn1nc(-n2ncc(C(N)=S)c2N)c(Cl)c1OC(F)F", "assay result": "156 °C"}

// switching to the query compound
The compound identified as Cc1cc(F)ccc1-c1cc(NCCNC(=O)NC2CCCCC2)nc2c1C=NC(=O)C2c1c(F)cccc1F (stereo unspecified) registered its melting point at 178 to 183 °C

---

Provide the recorded melting point for the entries that follow.

Known melting point results, listed for orientation:
{"compound": "CCOC(=O)C(Cc1c(Cl)cc(OC)cc1Cl)(NC(C)=O)C(=O)OCC", "melting point": "154 to 156 °C"}
{"compound": "O=C(NCCc1ccccc1CO)c1ccc([N+](=O)[O-])cc1", "melting point": "137 to 138 °C"}

Give melting point for each of the items listed below.
1. Cc1ccc(-c2ccnc3c(C(=O)c4cccs4)cnn23)cc1NC(=O)NC(C)C
2. O=C(N[C@H](Cc1ccc(Oc2ccccc2)cc1)[C@@H](O)c1ccc(F)cc1)c1ccc(F)c2ccccc12 (racemic)
3. COc1ccc(CNc2ncnc3c2ncn3C2OC(c3nnn[nH]3)C(O)C2O)cc1 (stereo not given)

Reply |
1. 225 to 227 °C
2. 104 to 105 °C
3. 210 to 211 °C
